Listing of entries alongside the reported IC50.
test_system: Metabotropic glutamate receptor 5 (Homo sapiens, UniProt P41594)
Sequence (P41594 whole entry): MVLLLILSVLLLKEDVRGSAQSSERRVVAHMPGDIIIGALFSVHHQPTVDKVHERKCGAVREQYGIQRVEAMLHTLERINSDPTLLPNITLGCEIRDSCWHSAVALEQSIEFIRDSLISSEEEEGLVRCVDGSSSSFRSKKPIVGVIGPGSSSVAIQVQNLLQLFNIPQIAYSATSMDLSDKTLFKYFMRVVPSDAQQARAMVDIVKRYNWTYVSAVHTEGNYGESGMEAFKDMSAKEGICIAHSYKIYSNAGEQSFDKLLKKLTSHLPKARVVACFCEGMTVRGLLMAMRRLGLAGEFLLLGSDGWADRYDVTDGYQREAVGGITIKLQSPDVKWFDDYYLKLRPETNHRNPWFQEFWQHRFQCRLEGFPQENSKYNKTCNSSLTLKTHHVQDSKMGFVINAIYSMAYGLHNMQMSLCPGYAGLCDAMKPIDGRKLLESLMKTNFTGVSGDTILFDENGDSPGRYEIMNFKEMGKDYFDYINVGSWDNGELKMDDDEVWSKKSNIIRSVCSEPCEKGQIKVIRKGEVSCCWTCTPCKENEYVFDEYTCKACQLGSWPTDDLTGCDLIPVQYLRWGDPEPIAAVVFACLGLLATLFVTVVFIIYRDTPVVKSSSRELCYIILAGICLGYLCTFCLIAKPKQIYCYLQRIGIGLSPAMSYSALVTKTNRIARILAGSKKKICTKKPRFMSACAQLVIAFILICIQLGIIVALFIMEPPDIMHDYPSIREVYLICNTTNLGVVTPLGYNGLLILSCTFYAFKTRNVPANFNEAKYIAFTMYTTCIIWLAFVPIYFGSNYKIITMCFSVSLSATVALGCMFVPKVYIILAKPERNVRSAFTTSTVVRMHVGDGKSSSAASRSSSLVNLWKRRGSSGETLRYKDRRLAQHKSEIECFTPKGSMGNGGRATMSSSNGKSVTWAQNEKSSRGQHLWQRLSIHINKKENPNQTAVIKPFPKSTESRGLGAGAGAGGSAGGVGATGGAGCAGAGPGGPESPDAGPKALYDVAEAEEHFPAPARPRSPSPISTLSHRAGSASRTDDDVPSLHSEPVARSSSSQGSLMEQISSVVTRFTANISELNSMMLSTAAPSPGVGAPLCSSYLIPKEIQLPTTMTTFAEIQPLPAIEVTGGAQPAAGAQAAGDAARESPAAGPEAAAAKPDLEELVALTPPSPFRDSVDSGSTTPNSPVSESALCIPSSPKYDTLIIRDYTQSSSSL
assay_text: Antagonist activity at human mGluR5 expressed in CHO cells assessed as increase in intracellular calcium level by FLIPR

Below, each entry is followed by its recorded IC50 result.
INSERT INTO measurements (molecule, test_system, experimental_value) VALUES
  ('Cc1cn2cc(C(F)(F)F)cc2c(C#Cc2ccc(C#N)cc2)n1', 'Metabotropic glutamate receptor 5 (Homo sapiens, UniProt P41594)', '> 15800 nM'),
  ('Cc1cn2cc(C(F)(F)F)cc2c(C#Cc2ccc(NS(C)(=O)=O)cc2)n1', 'Metabotropic glutamate receptor 5 (Homo sapiens, UniProt P41594)', '> 15800 nM'),
  ('Cc1cn2cccc2c(C#Cc2ccc(Br)cc2)n1', 'Metabotropic glutamate receptor 5 (Homo sapiens, UniProt P41594)', '> 12600 nM'),
  ('Cc1cn2cc(C(F)(F)F)cc2c(C#Cc2cccc(-c3ccsc3)c2)n1', 'Metabotropic glutamate receptor 5 (Homo sapiens, UniProt P41594)', '5010 nM'),
  ('Cc1cn2cc(C(N)=O)cc2c(C#Cc2ccccc2F)n1', 'Metabotropic glutamate receptor 5 (Homo sapiens, UniProt P41594)', '501 nM'),
  ('Cc1cn2cc(C(=O)N3CCN(C)CC3)cc2c(C#Cc2cccc(C(F)(F)F)c2)n1', 'Metabotropic glutamate receptor 5 (Homo sapiens, UniProt P41594)', '251 nM'),
  ('Cc1cn2cc(C(F)(F)F)cc2c(C#Cc2ccc(C(F)(F)F)cc2)n1', 'Metabotropic glutamate receptor 5 (Homo sapiens, UniProt P41594)', '> 15800 nM'),
  ('Cc1cn2cc(C(=O)N3CCCC3)cc2c(C#Cc2ccsc2)n1', 'Metabotropic glutamate receptor 5 (Homo sapiens, UniProt P41594)', '20 nM'),
  ('Cc1cn2cc(C#N)cc2c(C#Cc2cccc(F)c2)n1', 'Metabotropic glutamate receptor 5 (Homo sapiens, UniProt P41594)', '0.794 nM'),
  ('Cc1cn2cc(C(=O)N3CCCCC3C)cc2c(C#Cc2ccsc2)n1 (stereo not drawn)', 'Metabotropic glutamate receptor 5 (Homo sapiens, UniProt P41594)', '100 nM');

Challenge: Dear colleague, I am looking for the recorded IC50 of the following molecule: `Cc1cc2c(C#Cc3ccc(C(F)(F)F)cc3)nc(C)cn2c1`
Response given: > 15800 nM

Challenge: Again, but for `Cc1cn2cc(C(F)(F)F)cc2c(C#Cc2cccnc2)n1`
Response given: 501 nM

Challenge: Could you do the same for `Cc1cn2cc(CN3CCNC(=O)C3)cc2c(C#Cc2ccccc2)n1` , please?
Response given: 200 nM

###

test_system: Metabotropic glutamate receptor 5 (Homo sapiens, UniProt P41594)
assay_text: Antagonist activity at human mGluR5 expressed in CHO cells assessed as increase in intracellular calcium level by FLIPR
measure_name: pIC50
Give only the number. pIC50 is defined as minus log10 of concentration in molar units.

INSERT INTO assay_data (structure_as_smiles, measure_name, experimental_value) VALUES
  ('Cc1cn2cc(C(=O)N3CCC(F)(F)C3)cc2c(C#Cc2ccsc2)n1', 'pIC50', 6.90),
  ('Cc1cn2cc(C(F)(F)F)cc2c(C#Cc2cccs2)n1', 'pIC50', 7.20);

Challenge: Param readout = pIC50; param system = Metabotropic glutamate receptor 5 (Homo sapiens, UniProt P41594); param query = `Cc1cc2c(C#Cc3ccccc3)nc(C)cn2c1` ; response: value
Response given: 7.30

###

test_system: Metabotropic glutamate receptor 5 (Homo sapiens, UniProt P41594)
assay_text: Antagonist activity at human mGluR5 expressed in CHO cells assessed as increase in intracellular calcium level by FLIPR
measure_name: IC50

Example results:
INSERT INTO measurements (compound, measure_name, experimental_value) VALUES
  ('Cc1cn2cc(C(=O)N3CCCC3C)cc2c(C#Cc2ccsc2)n1 (stereo not given)', 'IC50', '39.8 nM'),
  ('Cc1cn2cc(C(F)(F)F)cc2c(C#Cc2cccc(-c3ccoc3)c2)n1', 'IC50', '10000 nM');

Challenge: What does the data say about its IC50? Entry: `Cc1cn2cc(C(F)(F)F)cc2c(C#Cc2cccc(C(=O)O)c2)n1`
Response given: > 12600 nM

Challenge: Now consider `CCOC(=O)c1cc2c(C#Cc3ccc(C#N)cc3)nc(C)cn2c1` and answer again.
Response given: > 15800 nM

Challenge: Same lookup for `Cc1cn2cc(C(F)(F)F)cc2c(C#Cc2cccc(Br)c2)n1` , please.
Response given: 25.1 nM

###

// reported pIC50 for each item listed
test_system: Metabotropic glutamate receptor 5 (Homo sapiens)
assay_text: Antagonist activity at human mGluR5 expressed in CHO cells assessed as increase in intracellular calcium level by FLIPR
Expect pIC50 as a plain number equal to -log10 of the molar concentration.

Below: 2 compounds and their reported pIC50.
INSERT INTO results (structure_as_smiles, measure_name, experimental_value) VALUES
  ('Cc1cccc(C#Cc2nc(C)cn3cccc23)c1', 'pIC50', 9.40),
  ('Cc1cc2c(C#Cc3cccnc3)nc(C)cn2c1', 'pIC50', 5.70);

Proceed to the following item.
Challenge: What value of measured pIC50 is listed for `Cc1cn2cc(C(=O)N3CCN(C)CC3)cc2c(C#Cc2ccsc2)n1` ?
Response given: 6.80

Measured values drawn from ChEMBL document CHEMBL1143100 for this set.
